Tested on: primary mouse hepatocytes
Experiment description: Gene expression (Affymetrix Mouse Genome 430 2.0) in primary mouse hepatocytes, true vs false GTX, 24 h and 48 h
Condition details: 24 h average; log2, corrected for vehicle control
# Gene expression data NM_028803 (Gbe1) per entry
Form: value (number only, do not type unit).

Nc1ccccc1C(=O)O [ANAC, o-Anthranilic acid]; −0.0826

Lookup: What measured Gene expression data NM_028803 (Gbe1) goes with c1ccc2c(c1)cc1ccc3cccc4ccc2c1c34 [BaP, Benzo(a)pyrene] ?
Found: −0.5416

Lookup: Field request: Gene expression data NM_028803 (Gbe1) | item: CC(=O)Nc1ccc2c(c1)Cc1ccccc1-2 [2-AAF, 2-Acetylaminofluorene]
Found: −0.2716

Lookup: Which Gene expression data NM_028803 (Gbe1) is listed for Nc1ccc([N+](=O)[O-])cc1N [4-NP, 4-Nitro-o-phenylenediamine] ?
Found: 0.3633

Lookup: What does the record list as Gene expression data NM_028803 (Gbe1) for O=c1c(O)c(-c2ccc(O)c(O)c2)oc2cc(O)cc(O)c12 [Q, Quercetin] ?
Found: −0.2509

Lookup: Entry CN(C)N=O [DMN, Dimethylnitrosamine] : reported Gene expression data NM_028803 (Gbe1) = ?
Found: −1.103

----------
Tested on: primary mouse hepatocytes
Experiment description: Gene expression (Affymetrix Mouse Genome 430 2.0) in primary mouse hepatocytes, true vs false GTX, 24 h and 48 h
Condition details: 48 h; log2, corrected for vehicle control
Quantity: Gene expression BG797099 average
// no unit, no text: just the number

Below: 3 compounds and their reported Gene expression BG797099 average.
O=c1c(O)c(-c2ccc(O)c(O)c2)oc2cc(O)cc(O)c12; −0.3185
Nc1ccc([N+](=O)[O-])cc1N; −0.06697
CN(C)N=O; 1.704

Lookup: What reported Gene expression BG797099 average corresponds to Nc1ccccc1C(=O)O on primary mouse hepatocytes?
Found: −0.02097

Lookup: Kindly state the measured Gene expression BG797099 average obtained for c1ccc2c(c1)cc1ccc3cccc4ccc2c1c34 with primary mouse hepatocytes.
Found: 1.8809

Lookup: Query the reported Gene expression BG797099 average for primary mouse hepatocytes; item: CC(=O)Nc1ccc2c(c1)Cc1ccccc1-2
Found: −0.06173

----------
Test system: primary mouse hepatocytes
Experiment description: Gene expression (Affymetrix Mouse Genome 430 2.0) in primary mouse hepatocytes, true vs false GTX, 24 h and 48 h
Condition details: 24 h average; log2, corrected for vehicle control
Please mark Criterion met if the recorded Gene expression data BB027848 (4732466D17Rik) is equal to or greater than -0.3, and Criterion not met if it falls below.

O=c1c(O)c(-c2ccc(O)c(O)c2)oc2cc(O)cc(O)c12; Criterion not met
c1ccc2c(c1)cc1ccc3cccc4ccc2c1c34; Criterion met
Nc1ccc([N+](=O)[O-])cc1N; Criterion not met
CC(=O)Nc1ccc2c(c1)Cc1ccccc1-2; Criterion met
Nc1ccccc1C(=O)O; Criterion met

Lookup: Evaluate CN(C)N=O : Gene expression data BB027848 (4732466D17Rik) at minimum -0.3?
Found: Criterion met

----------
Test system: primary mouse hepatocytes
Experiment description: Gene expression (Affymetrix Mouse Genome 430 2.0) in primary mouse hepatocytes, true vs false GTX, 24 h and 48 h
Condition details: 48 h; log2, corrected for vehicle control
Strictly below -0.2 in Gene expression BC025169 average: class 1. Otherwise: class 0.

Examples with answers:
O=c1c(O)c(-c2ccc(O)c(O)c2)oc2cc(O)cc(O)c12 [Q, Quercetin]; class 0
CN(C)N=O [DMN, Dimethylnitrosamine]; class 1
Nc1ccc([N+](=O)[O-])cc1N [4-NP, 4-Nitro-o-phenylenediamine]; class 0
CC(=O)Nc1ccc2c(c1)Cc1ccccc1-2 [2-AAF, 2-Acetylaminofluorene]; class 1
c1ccc2c(c1)cc1ccc3cccc4ccc2c1c34 [BaP, Benzo(a)pyrene]; class 1

API: the following record is the query input.
Lookup: Does this molecule meet the criterion Gene expression BC025169 average < -0.2? Nc1ccccc1C(=O)O [ANAC, o-Anthranilic acid]
Found: class 0

----------
System: primary mouse hepatocytes
Experiment description: Gene expression (Affymetrix Mouse Genome 430 2.0) in primary mouse hepatocytes, true vs false GTX, 24 h and 48 h
Condition details: 48 h; log2, corrected for vehicle control
Some compounds, each annotated with its measured Gene expression BC003284 average.
Give the figure by itself; no unit, no explanation.

O=c1c(O)c(-c2ccc(O)c(O)c2)oc2cc(O)cc(O)c12; −0.3991
CN(C)N=O; 1.379

Lookup: # lookup: Gene expression BC003284 average of Nc1ccccc1C(=O)O
Found: −0.2108

Lookup: Which Gene expression BC003284 average value is on record for CC(=O)Nc1ccc2c(c1)Cc1ccccc1-2 ?
Found: 0.02563

Lookup: Reported Gene expression BC003284 average, compound Nc1ccc([N+](=O)[O-])cc1N : ____
Found: −0.5876

Lookup: Tell me the measured Gene expression BC003284 average of c1ccc2c(c1)cc1ccc3cccc4ccc2c1c34 , please.
Found: 0.7313

----------
Tested on: primary mouse hepatocytes
Experiment description: Gene expression (Affymetrix Mouse Genome 430 2.0) in primary mouse hepatocytes, true vs false GTX, 24 h and 48 h
Condition details: 48 h; log2, corrected for vehicle control
Returns: string. Value is t if measured Gene expression NM_013929 average is below 0.09, and f if it is greater than or equal to it.

Worked cases, answers included:
CC(=O)Nc1ccc2c(c1)Cc1ccccc1-2 [2-AAF, 2-Acetylaminofluorene]; t
Nc1ccccc1C(=O)O [ANAC, o-Anthranilic acid]; t
Nc1ccc([N+](=O)[O-])cc1N [4-NP, 4-Nitro-o-phenylenediamine]; f
CN(C)N=O [DMN, Dimethylnitrosamine]; f

Please examine the following record next.
Lookup: Decide: Gene expression NM_013929 average of c1ccc2c(c1)cc1ccc3cccc4ccc2c1c34 [BaP, Benzo(a)pyrene] strictly below 0.09?
Found: f

----------
System: primary mouse hepatocytes
Experiment description: Gene expression (Affymetrix Mouse Genome 430 2.0) in primary mouse hepatocytes, true vs false GTX, 24 h and 48 h
Condition details: 48 h; log2, corrected for vehicle control
Quantity: Gene expression BG066491 average
Please give the numeric answer without any surrounding text.

The following molecules have reported results that may help.
Nc1ccccc1C(=O)O; −0.061
Nc1ccc([N+](=O)[O-])cc1N; −0.8219
c1ccc2c(c1)cc1ccc3cccc4ccc2c1c34; −2.098
CN(C)N=O; −0.9757
O=c1c(O)c(-c2ccc(O)c(O)c2)oc2cc(O)cc(O)c12; −0.6278

Lookup: Entry CC(=O)Nc1ccc2c(c1)Cc1ccccc1-2 : reported Gene expression BG066491 average = ?
Found: −1.541

----------
Test system: primary mouse hepatocytes
Experiment description: Gene expression (Affymetrix Mouse Genome 430 2.0) in primary mouse hepatocytes, true vs false GTX, 24 h and 48 h
Condition details: 48 h; log2, corrected for vehicle control
molecules and their reported Gene expression BC021352 average
Lab note: jot the number down without any unit.

CN(C)N=O; 3.512

Lookup: Which value of Gene expression BC021352 average has been reported for c1ccc2c(c1)cc1ccc3cccc4ccc2c1c34 in the records?
Found: 0.7052

Lookup: Which Gene expression BC021352 average is listed for CC(=O)Nc1ccc2c(c1)Cc1ccccc1-2 ?
Found: −1.127

Lookup: For the molecule shown here, Nc1ccc([N+](=O)[O-])cc1N , give the reported Gene expression BC021352 average.
Found: −1.28

Lookup: Data request, read-out Gene expression BC021352 average, for Nc1ccccc1C(=O)O
Found: 0.06563

Lookup: Query (molecule): O=c1c(O)c(-c2ccc(O)c(O)c2)oc2cc(O)cc(O)c12 ; field requested: Gene expression BC021352 average
Found: −1.143

----------
Tested on: primary mouse hepatocytes
Experiment description: Gene expression (Affymetrix Mouse Genome 430 2.0) in primary mouse hepatocytes, true vs false GTX, 24 h and 48 h
Condition details: 48 h; log2, corrected for vehicle control
Quantity: Gene expression BB743970 average
The response must contain the number and no unit.

Some compounds with known Gene expression BB743970 average results, for comparison:
c1ccc2c(c1)cc1ccc3cccc4ccc2c1c34 [BaP, Benzo(a)pyrene]; 1.51
CN(C)N=O [DMN, Dimethylnitrosamine]; 3.154
CC(=O)Nc1ccc2c(c1)Cc1ccccc1-2 [2-AAF, 2-Acetylaminofluorene]; 0.7664
O=c1c(O)c(-c2ccc(O)c(O)c2)oc2cc(O)cc(O)c12 [Q, Quercetin]; −0.1543
Nc1ccc([N+](=O)[O-])cc1N [4-NP, 4-Nitro-o-phenylenediamine]; −0.1636

Lab note: next compound to report on.
Lookup: GET /values?readout=Gene expression BB743970 average&system=primary mouse hepatocytes&item= Nc1ccccc1C(=O)O [ANAC, o-Anthranilic acid]
Found: 0.1551
